- system name: T1, cyno FcRn/b2M (cyno, UniProt Q8SPV9 24-297; Q8SPW0 21-119, biotinylated)
- T1 construct: bought recombinant biotinylated protein (Immunitrack ITF05 or ACRO FCM-C82W5); also called cFcRn; cFcRn/cb2M
- T1 sequence (Q8SPV9 24-297 limits assumed, chain 1 of 2): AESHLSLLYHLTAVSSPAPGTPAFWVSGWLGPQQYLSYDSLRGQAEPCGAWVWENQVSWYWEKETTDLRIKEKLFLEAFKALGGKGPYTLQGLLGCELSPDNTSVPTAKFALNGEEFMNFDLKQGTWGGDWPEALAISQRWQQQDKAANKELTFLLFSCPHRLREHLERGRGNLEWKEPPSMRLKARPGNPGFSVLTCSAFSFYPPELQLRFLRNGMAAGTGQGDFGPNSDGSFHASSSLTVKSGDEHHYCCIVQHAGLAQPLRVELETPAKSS
- T1 sequence (Q8SPW0 21-119 limits assumed, chain 2 of 2): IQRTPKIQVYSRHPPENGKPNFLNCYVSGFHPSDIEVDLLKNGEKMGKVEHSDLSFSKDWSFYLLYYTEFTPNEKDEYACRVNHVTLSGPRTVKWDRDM
- assay overview: SPR pH 7.4;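 further: surface plasmon resonance kinetics, periplasmic extracts diluted 1:10 flowed over immobilized target at 25 °C, 120 s association then 600–3600 s dissociation, buffer with 150 mM NaCl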
outcome measure: koff (s⁻¹)

The cases that follow already have their koff on record.
T0263018B11 F27I (VHH, name in Kabat numbering, FLAG3-His6 tagged) VHH: EVQLVESGGGVVQPGGSLRLSCAASGITFSSYAMYWVRQAPGKGLEWVSAISSGGGSTDYADSVKGRFTISRDNSKNTLYLQMNSLRPEDTALYYCAADTLYTSLTWYSYWGQGTLVTVSS: 0.031
T0263018B11 S56H (VHH, name in Kabat numbering, FLAG3-His6 tagged) VHH: EVQLVESGGGVVQPGGSLRLSCAASGFTFSSYAMYWVRQAPGKGLEWVSAISSGGGHTDYADSVKGRFTISRDNSKNTLYLQMNSLRPEDTALYYCAADTLYTSLTWYSYWGQGTLVTVSS: 0.046
T0263018B11 G26E (VHH, name in Kabat numbering, FLAG3-His6 tagged) VHH: EVQLVESGGGVVQPGGSLRLSCAASEFTFSSYAMYWVRQAPGKGLEWVSAISSGGGSTDYADSVKGRFTISRDNSKNTLYLQMNSLRPEDTALYYCAADTLYTSLTWYSYWGQGTLVTVSS: 0.05

1 = T0263018B11 A33H (VHH, name in Kabat numbering, FLAG3-His6 tagged) VHH: EVQLVESGGGVVQPGGSLRLSCAASGFTFSSYHMYWVRQAPGKGLEWVSAISSGGGSTDYADSVKGRFTISRDNSKNTLYLQMNSLRPEDTALYYCAADTLYTSLTWYSYWGQGTLVTVSS
2 = T0263018B11 Y100dF (VHH, name in Kabat numbering, FLAG3-His6 tagged) VHH: EVQLVESGGGVVQPGGSLRLSCAASGFTFSSYAMYWVRQAPGKGLEWVSAISSGGGSTDYADSVKGRFTISRDNSKNTLYLQMNSLRPEDTALYYCAADTLYTSLTWFSYWGQGTLVTVSS
3 = T0263018B11 S52H (VHH, name in Kabat numbering, FLAG3-His6 tagged) VHH: EVQLVESGGGVVQPGGSLRLSCAASGFTFSSYAMYWVRQAPGKGLEWVSAIHSGGGSTDYADSVKGRFTISRDNSKNTLYLQMNSLRPEDTALYYCAADTLYTSLTWYSYWGQGTLVTVSS
4 = T0263018B11 S52R (VHH, name in Kabat numbering, FLAG3-His6 tagged) VHH: EVQLVESGGGVVQPGGSLRLSCAASGFTFSSYAMYWVRQAPGKGLEWVSAIRSGGGSTDYADSVKGRFTISRDNSKNTLYLQMNSLRPEDTALYYCAADTLYTSLTWYSYWGQGTLVTVSS
5 = T0263018B11 T28W (VHH, name in Kabat numbering, FLAG3-His6 tagged) VHH: EVQLVESGGGVVQPGGSLRLSCAASGFWFSSYAMYWVRQAPGKGLEWVSAISSGGGSTDYADSVKGRFTISRDNSKNTLYLQMNSLRPEDTALYYCAADTLYTSLTWYSYWGQGTLVTVSS
Input line: Sequence the entries by koff, beginning with the highest number. Submit the labels in the order that the ranking request calls for.
Output line: 4, 3, 2, 1, 5
